B1: TMEM106C (parent)
chain: SEQLVNFTGKAEMGGPFSYVYFFC

Variants of: B1
METHOD_NOTES: protein stability index of a GFP-peptide fusion (GPS, HEK-293T) (PSI 1-6); higher = more stable;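 also: lentivirally expressed fusions sorted by FACS into six bins by GFP to DsRed ratio, PSI derived from sequencing read proportions per bin multiplied by bin number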
SETUP_CONDITIONS: c terminus: a fixed tail appended
Decide using protein stability index: a value greater than or equal to 3 is Y, a smaller one is N.

A selection of reference data follows.
| VARIANT | GROUP |
| --- | --- |
| N6K | N |
| A11D | N |
| Y21L | Y |
| L4H | Y |

Has `M13E` a recorded protein stability index greater than or equal to 3?
N

Answer whether protein stability index of `Y21V` is greater than or equal to 3.
Y

Decide: protein stability index of `F23L` >= 3?
N

# check: protein stability index of `P16I` is greater than or equal to 3
N

Quick check, protein stability index >= 3? `E12L`
N

Decide: protein stability index of `S18C` >= 3?
N

# check: protein stability index of `V5W` is greater than or equal to 3
Y

Threshold query (protein stability index >= 3) on `M13C`
N

Textbook exercise: given the entry `M13F` , state whether its protein stability index is greater than or equal to 3.
N

Tell me whether protein stability index is at least 3 here: `S18H`
N

Evaluate `G14D` : protein stability index at minimum 3?
Y

Has `A11E` a recorded protein stability index greater than or equal to 3?
Y

Item `F22G` with protein stability index of 3 or above?
N

Entry `G9P` : is its protein stability index no less than 3?
N

Is reported protein stability index greater than or equal to 3 here: `G15S`
N

# check: protein stability index of `F7M` is greater than or equal to 3
N

Hi, just wondering whether `V20M` shows protein stability index of 3 or higher.
N
